Measured values drawn from PubChem BioAssay (NCI) for this set.

Tested on: HCT-15 colon
Assay: NCI tumour cell line growth inhibition, 48 h
Measure Name: TGI (µM)
Write the number in µM without appending the unit.

The reported value for COC(=O)c1cc2oc(/C=C3\SC(=S)N(NC(C)=O)C3=O)cc2n1Cc1ccccc1 in terms of TGI is 8.56

The reported value for O=C1C(=C(C(=O)c2ccccc2)C(=O)c2ccccc2)OC(c2ccccc2)=C1C(=O)c1ccccc1 in terms of TGI is 14.9

The reported value for O=C(N/C(=C\c1ccc(Oc2ccc(Cl)c(Cl)c2)cc1)c1nc2ccccc2[nH]1)c1ccccc1 in terms of TGI is 66.6

###

Test system: PC-3 prostate
Test: NCI tumour cell line growth inhibition, 48 h
Measure Name: GI50

The reported value for COC(=O)c1cc2oc(/C=C3\SC(=S)N(NC(C)=O)C3=O)cc2n1Cc1ccccc1 in terms of GI50 is 1610 nM

The reported value for O=C1/C(=C/c2ccc(Cl)cc2)COc2ccc(O)c(O)c21 in terms of GI50 is 501 nM

The reported value for O=C(/C=C/c1ccc(C(F)(F)F)cc1)c1ccc(Nc2nc(NCCO)nc(N3CCOCC3)n2)cc1 in terms of GI50 is 2240 nM

The reported value for C=C1CC[C@@H]2[C@](C)(COC(C)=O)[C@H](OC(C)=O)CC[C@@]2(C)[C@@H]1C/C=C1/C(=O)OC[C@H]1OC(C)=O in terms of GI50 is 6070 nM

The reported value for COc1cc(/C=C/C(=O)c2c(C)n([O-])c3ccc(Cl)cc3[n+]2=O)cc(OC)c1OC in terms of GI50 is 27500 nM

The reported value for N#CC1=C(N)Oc2c(sc3c(F)cccc23)C1c1ccc(F)cc1 (stereo unspecified) in terms of GI50 is 892 nM

The reported value for OCCNCCNc1c2ccccc2nc2oc3ccccc3c12 in terms of GI50 is 9730 nM

The reported value for COc1cc([N+](=O)[O-])c(OC)cc1-c1nc2sc(Cl)cn2c1/C=N/NC(=N)N/N=C/c1c(-c2cc(OC)c([N+](=O)[O-])cc2OC)nc2sc(Cl)cn12 in terms of GI50 is 1970 nM

The reported value for CSC1C(=O)c2ccccc2/C(=N/Nc2nc3ccccc3s2)C1C (stereo unspecified) in terms of GI50 is 9280 nM

The reported value for NCCCCN(Cc1nc2ccccc2[nH]1)[C@H]1CCCc2cccnc21 in terms of GI50 is 5520 nM

The reported value for Oc1ccc(N=Nc2ccc(N=Nc3ccccc3)cc2)cc1 in terms of GI50 is 2830 nM
